biological target: UniProt:Q9Y6R4; assay: Further analysis of a plurality of inhibitors and a plurality of kinases (Table 5 inhibition results); assay type: biochemical; set-up: scale not given here; details: kinase MAP3K4 (Part I, plate E7, Domain 1); inhibitor 100 uM
Sequence (Q9Y6R4 whole entry): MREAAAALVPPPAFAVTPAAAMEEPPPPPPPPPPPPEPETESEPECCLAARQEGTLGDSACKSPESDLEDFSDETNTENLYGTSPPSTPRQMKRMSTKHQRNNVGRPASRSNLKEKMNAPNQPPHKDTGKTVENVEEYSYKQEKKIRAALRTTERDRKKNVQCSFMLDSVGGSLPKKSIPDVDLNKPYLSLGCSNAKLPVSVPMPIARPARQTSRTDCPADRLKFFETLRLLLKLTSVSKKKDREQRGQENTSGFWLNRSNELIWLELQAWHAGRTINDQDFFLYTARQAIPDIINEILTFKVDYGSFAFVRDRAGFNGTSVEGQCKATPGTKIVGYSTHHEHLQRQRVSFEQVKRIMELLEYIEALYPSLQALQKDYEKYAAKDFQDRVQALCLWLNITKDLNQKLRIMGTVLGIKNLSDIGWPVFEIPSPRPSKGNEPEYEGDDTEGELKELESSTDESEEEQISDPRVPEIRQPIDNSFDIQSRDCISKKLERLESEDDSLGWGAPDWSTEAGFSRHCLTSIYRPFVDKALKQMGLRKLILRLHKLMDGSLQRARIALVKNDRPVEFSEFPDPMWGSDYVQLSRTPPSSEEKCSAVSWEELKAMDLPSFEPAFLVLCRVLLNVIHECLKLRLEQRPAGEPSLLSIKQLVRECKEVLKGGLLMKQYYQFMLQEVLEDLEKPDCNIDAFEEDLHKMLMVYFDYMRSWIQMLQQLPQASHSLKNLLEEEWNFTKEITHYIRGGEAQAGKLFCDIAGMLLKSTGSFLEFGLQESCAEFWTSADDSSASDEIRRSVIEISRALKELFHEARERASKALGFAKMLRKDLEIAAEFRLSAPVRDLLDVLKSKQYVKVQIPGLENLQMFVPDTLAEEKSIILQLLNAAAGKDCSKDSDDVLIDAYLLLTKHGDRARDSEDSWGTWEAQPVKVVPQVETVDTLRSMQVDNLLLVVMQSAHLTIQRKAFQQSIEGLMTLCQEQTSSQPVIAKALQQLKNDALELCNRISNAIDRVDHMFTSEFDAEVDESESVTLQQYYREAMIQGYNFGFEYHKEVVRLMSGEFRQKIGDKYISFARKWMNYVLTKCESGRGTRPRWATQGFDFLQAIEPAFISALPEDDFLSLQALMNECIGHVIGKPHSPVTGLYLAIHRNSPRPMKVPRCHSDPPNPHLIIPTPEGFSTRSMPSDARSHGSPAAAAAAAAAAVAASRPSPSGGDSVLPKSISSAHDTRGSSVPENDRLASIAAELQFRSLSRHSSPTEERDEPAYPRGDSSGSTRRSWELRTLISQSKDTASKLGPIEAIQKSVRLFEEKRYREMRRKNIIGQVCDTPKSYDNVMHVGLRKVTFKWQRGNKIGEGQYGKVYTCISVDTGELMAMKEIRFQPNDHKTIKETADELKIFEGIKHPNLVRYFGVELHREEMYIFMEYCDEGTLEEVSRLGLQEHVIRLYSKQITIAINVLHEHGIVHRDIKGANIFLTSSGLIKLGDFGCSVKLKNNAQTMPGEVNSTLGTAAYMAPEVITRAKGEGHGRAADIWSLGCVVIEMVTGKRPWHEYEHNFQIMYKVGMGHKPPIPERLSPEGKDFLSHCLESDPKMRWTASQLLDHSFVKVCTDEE
Value Type: Inhibition Results (Level)

[
  {
    "Smiles Code": "O=S(=O)(NCCNC/C=C/c1ccc(Br)cc1)c1cccc2cnccc12",
    "Study Target": "UniProt:Q9Y6R4",
    "Reported Result": 1
  },
  {
    "Smiles Code": "O=c1c(-c2ccc(O)cc2)coc2cc(O)cc(O)c12",
    "Study Target": "UniProt:Q9Y6R4",
    "Reported Result": 1
  },
  {
    "Smiles Code": "Cn1cc(C2=C(c3cn(CCCSC(=N)N)c4ccccc34)C(=O)NC2=O)c2ccccc21",
    "Study Target": "UniProt:Q9Y6R4",
    "Reported Result": 2
  },
  {
    "Smiles Code": "O=c1c(O)c(-c2ccc(O)c(O)c2)oc2cc(O)cc(O)c12",
    "Study Target": "UniProt:Q9Y6R4",
    "Reported Result": 0
  },
  {
    "Smiles Code": "CC(C)(C)n1nc(-c2ccc(Cl)cc2)c2c(N)ncnc21",
    "Study Target": "UniProt:Q9Y6R4",
    "Reported Result": 2
  },
  {
    "Smiles Code": "CC(=O)c1c(O)c(C)c(O)c(Cc2c(O)c3c(c(C(=O)/C=C/c4ccccc4)c2O)OC(C)(C)C=C3)c1O",
    "Study Target": "UniProt:Q9Y6R4",
    "Reported Result": 1
  },
  {
    "Smiles Code": "N#C/C(=C/c1ccc(O)c(O)c1)C(=O)NCc1ccccc1",
    "Study Target": "UniProt:Q9Y6R4",
    "Reported Result": 2
  },
  {
    "Smiles Code": "COc1cc2ncnc(Nc3cccc(Cl)c3)c2cc1OC",
    "Study Target": "UniProt:Q9Y6R4",
    "Reported Result": 1
  }
]

----------
molecular target: kinases of Table 5 (Homo sapiens); experiment: Further analysis of a plurality of inhibitors and a plurality of kinases (Table 5 inhibition results); type: biochemical; set-up: scale not given here; conditions: kinase CAMK2D; inhibitor 100 uM

[
  {
    "Smiles Code": "O=c1c(-c2ccc(O)cc2)coc2cc(O)cc(O)c12",
    "Inhibition level": 2
  },
  {
    "Smiles Code": "N#C/C(=C/c1ccc(O)c(O)c1)C(=O)NCc1ccccc1",
    "Inhibition level": 2
  },
  {
    "Smiles Code": "CC(=O)c1c(O)c(C)c(O)c(Cc2c(O)c3c(c(C(=O)/C=C/c4ccccc4)c2O)OC(C)(C)C=C3)c1O",
    "Inhibition level": 2
  },
  {
    "Smiles Code": "Cn1cc(C2=C(c3cn(CCCSC(=N)N)c4ccccc34)C(=O)NC2=O)c2ccccc21",
    "Inhibition level": 0
  },
  {
    "Smiles Code": "COc1cc2ncnc(Nc3cccc(Cl)c3)c2cc1OC",
    "Inhibition level": 2
  },
  {
    "Smiles Code": "O=S(=O)(NCCNC/C=C/c1ccc(Br)cc1)c1cccc2cnccc12",
    "Inhibition level": 0
  },
  {
    "Smiles Code": "CC(C)(C)n1nc(-c2ccc(Cl)cc2)c2c(N)ncnc21",
    "Inhibition level": 2
  }
]
